- tested target: T1, c-Met on c-Met positive human gastric cancer cell MKN-45 (human, UniProt P08581 25-1390)
- T1 construct: whole, on cells; also called hepatocyte growth factor receptor; HGFR
- T1 sequence (P08581 25-1390): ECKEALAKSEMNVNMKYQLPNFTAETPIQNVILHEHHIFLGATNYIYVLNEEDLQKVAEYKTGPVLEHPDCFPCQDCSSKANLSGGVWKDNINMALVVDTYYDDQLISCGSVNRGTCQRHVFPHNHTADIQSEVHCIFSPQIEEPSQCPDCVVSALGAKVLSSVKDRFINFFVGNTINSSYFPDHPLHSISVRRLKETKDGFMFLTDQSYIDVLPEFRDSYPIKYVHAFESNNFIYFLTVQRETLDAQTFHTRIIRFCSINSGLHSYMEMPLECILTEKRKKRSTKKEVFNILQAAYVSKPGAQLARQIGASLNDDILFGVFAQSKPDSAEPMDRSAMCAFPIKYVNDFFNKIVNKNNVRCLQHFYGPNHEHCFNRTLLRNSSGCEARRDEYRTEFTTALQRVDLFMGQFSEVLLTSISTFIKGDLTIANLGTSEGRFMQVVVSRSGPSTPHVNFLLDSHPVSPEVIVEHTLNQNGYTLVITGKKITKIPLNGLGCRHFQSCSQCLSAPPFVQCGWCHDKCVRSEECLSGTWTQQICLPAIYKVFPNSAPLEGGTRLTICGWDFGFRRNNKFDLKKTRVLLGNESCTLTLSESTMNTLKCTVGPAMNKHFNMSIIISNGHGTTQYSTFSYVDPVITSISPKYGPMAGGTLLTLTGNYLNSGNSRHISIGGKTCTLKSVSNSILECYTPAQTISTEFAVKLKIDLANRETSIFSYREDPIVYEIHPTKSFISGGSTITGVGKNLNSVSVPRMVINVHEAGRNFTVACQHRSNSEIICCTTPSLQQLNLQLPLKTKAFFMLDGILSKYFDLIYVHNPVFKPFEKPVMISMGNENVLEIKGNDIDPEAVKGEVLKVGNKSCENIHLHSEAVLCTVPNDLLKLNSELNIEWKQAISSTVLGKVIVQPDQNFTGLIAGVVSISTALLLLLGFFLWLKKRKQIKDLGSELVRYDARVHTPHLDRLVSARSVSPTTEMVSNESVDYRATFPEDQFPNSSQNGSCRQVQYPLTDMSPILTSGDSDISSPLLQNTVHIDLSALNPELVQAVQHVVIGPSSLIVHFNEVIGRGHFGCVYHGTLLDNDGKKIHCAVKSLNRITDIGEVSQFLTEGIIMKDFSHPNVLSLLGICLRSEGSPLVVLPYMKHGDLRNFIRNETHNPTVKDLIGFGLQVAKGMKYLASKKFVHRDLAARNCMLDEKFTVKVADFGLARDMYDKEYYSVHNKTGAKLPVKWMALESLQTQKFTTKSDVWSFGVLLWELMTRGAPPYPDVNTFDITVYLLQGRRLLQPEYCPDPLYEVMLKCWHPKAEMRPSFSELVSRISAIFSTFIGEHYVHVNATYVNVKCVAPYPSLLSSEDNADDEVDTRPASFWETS
- run description: flow cytometry, FITC-peptide on c-Met positive MKN-45 cells
Where no end group is shown, it is not given here. The star is where a group is joined. FITC = O=C1OC2(c3ccc(O)cc3Oc3cc(O)ccc32)c2ccc(NC(=S)*)cc21

binder	EC50
{FITC}-DQAIANN (Alanine variant of CM7-1 at position 3) [FITC-CM7-1.3 (FITC-DQAIANN)]	0.0456 µM
{FITC}-DQIIANN (tested as the FITC-labelled form; Molecular weight 1289.36) [FITC-CM7-1 (FITC-DQIIANN)]	9.51 µM
{FITC}-DQIIAAN (Alanine variant of CM7-1 at position 6) [FITC-CM7-1.5 (FITC-DQIIAAN)]	15.2 µM
{FITC}-AQIIANN (Alanine variant of CM7-1 at position 1) [FITC-CM7-1.1 (FITC-AQIIANN)]	2.07 µM
{FITC}-DAIIANN (Alanine variant of CM7-1 at position 2) [FITC-CM7-1.2 (FITC-DAIIANN)]	1.88 µM
{FITC}-DQIIANA (Alanine variant of CM7-1 at position 7) [FITC-CM7-1.6 (FITC-DQIIANA)]	5.05 µM
{FITC}-DQIAANN (Alanine variant of CM7-1 at position 4) [FITC-CM7-1.4 (FITC-DQIAANN)]	5.37 µM
